System Tested: TDP-43 RRM1-2 (UniProt Q13148 102-269)
Sequence (Q13148 102-269): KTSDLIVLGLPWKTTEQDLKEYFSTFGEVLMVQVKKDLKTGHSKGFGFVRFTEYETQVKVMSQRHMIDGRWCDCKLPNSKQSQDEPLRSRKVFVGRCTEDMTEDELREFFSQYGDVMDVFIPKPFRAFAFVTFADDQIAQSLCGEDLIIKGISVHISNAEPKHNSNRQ
Assay Procedure: BLI; BLI (Octet RED), 10 mM potassium phosphate pH 7.2, 150 mM KCl, 0.05% Tween, 25 C; RNA on streptavidin sensors, protein 1 nM-15 uM
Measurement Setup: protein: recombinant; tags: 6xHis-SUMO removed by TEV; single strand
Observation Type: Kd (nM)
The reply should contain only the number, in nM.

AUUCAUUCACAC (ssRNA) [NegAUG12]; 2600

Turning now to a further binder:
Reported Kd for GUGUGAAUGAAU (ssRNA) [AUG12] was 3.9
